Quick note: these are Log K numbers for system: Nucleic Acid
// return just the number, without any unit appended

>>> df
                compound_structure  obs_value
0  c1ccc(Nc2c3ccccc3nc3ccccc23)nc1       5.43

Problem: Record `NC(=O)c1ccc(Nc2c3ccccc3nc3ccccc23)cc1` : what is its Log K with Nucleic Acid?
Solution: 5.77

Problem: Record `Nc1ccc(S(=O)(=O)Nc2ccc(Nc3c4ccccc4nc4ccccc34)cc2)cc1` : what is its Log K with Nucleic Acid?
Solution: 6.26

====

Quick note: these are Log K numbers for system: Nucleic Acid
// return just the number, without any unit appended

                         compound_structure  measured_metric  obs_value
0            Cc1ccccc1Nc1c2ccccc2nc2ccccc12            Log K       5.25
1           Clc1ccccc1Nc1c2ccccc2nc2ccccc12            Log K       5.39
2          Ic1ccc(Nc2c3ccccc3nc3ccccc23)cc1            Log K       6.19
3    COC(=O)c1ccc(Nc2c3ccccc3nc3ccccc23)cc1            Log K       5.88
4         Clc1cccc(Nc2c3ccccc3nc3ccccc23)c1            Log K       6.02
5  CN(c1ccccc1Nc1c2ccccc2nc2ccccc12)S(C)(=O)=O            Log K       5.08

Problem: Name the reported Log K value associated with the compound `COc1ccc(Nc2c3ccccc3nc3ccccc23)cc1`
Solution: 6.12

Problem: Name the reported Log K value associated with the compound `O=[N+]([O-])c1ccc(Nc2c3ccccc3nc3ccccc23)cc1`
Solution: 5.48

Problem: Name the reported Log K value associated with the compound `Nc1cccc(Nc2c3ccccc3nc3ccccc23)c1`
Solution: 6.11

Problem: Name the reported Log K value associated with the compound `Oc1ccccc1Nc1c2ccccc2nc2ccccc12`
Solution: 5.36

Problem: Name the reported Log K value associated with the compound `COC(=O)c1ccccc1Nc1c2ccccc2nc2ccccc12`
Solution: 5.47

Problem: Name the reported Log K value associated with the compound `CCNc1ccc(Nc2c3ccccc3nc3ccccc23)cc1`
Solution: 6.44

Problem: Name the reported Log K value associated with the compound `CN(c1ccc(Nc2c3ccccc3nc3ccccc23)cc1)S(C)(=O)=O`
Solution: 5.89

Problem: Name the reported Log K value associated with the compound `CS(=O)(=O)Nc1ccccc1Nc1c2ccccc2nc2ccccc12`
Solution: 5.49

Problem: Name the reported Log K value associated with the compound `O=C(Nc1ccc(Nc2c3ccccc3nc3ccccc23)cc1)c1ccccc1`
Solution: 6.2

Problem: Name the reported Log K value associated with the compound `O=[N+]([O-])c1cccc(Nc2c3ccccc3nc3ccccc23)c1`
Solution: 5.56

Problem: Name the reported Log K value associated with the compound `COC(=O)Nc1ccccc1Nc1c2ccccc2nc2ccccc12`
Solution: 5.56

====

Quick note: these are Log K numbers for system: Nucleic Acid
// return just the number, without any unit appended

Answered examples (2):
>>> print(df.to_string())
                         compound_structure  obs_value
0  CS(=O)(=O)Nc1cccc(Nc2c3ccccc3nc3ccccc23)c1       5.86
1           c1ccc(Nc2c3ccccc3nc3ccccc23)cc1       5.85

Problem: Name the reported Log K value associated with the molecule `COc1ccc(Nc2c3ccccc3nc3ccccc23)cc1`
Solution: 6.08

Problem: Name the reported Log K value associated with the molecule `CS(=O)(=O)NCc1ccccc1Nc1c2ccccc2nc2ccccc12`
Solution: 5.39

Problem: Name the reported Log K value associated with the molecule `O=[N+]([O-])c1cccc(Nc2c3ccccc3nc3ccccc23)c1`
Solution: 5.62

Problem: Name the reported Log K value associated with the molecule `Oc1cccc(Nc2c3ccccc3nc3ccccc23)c1`
Solution: 6.1

Problem: Name the reported Log K value associated with the molecule `CNc1cccc(Nc2c3ccccc3nc3ccccc23)c1`
Solution: 6.01

Problem: Name the reported Log K value associated with the molecule `CCCCNc1ccc(Nc2c3ccccc3nc3ccccc23)cc1`
Solution: 6.39

Problem: Name the reported Log K value associated with the molecule `COC(=O)c1ccc(Nc2c3ccccc3nc3ccccc23)cc1`
Solution: 5.86

Problem: Name the reported Log K value associated with the molecule `Cc1cccc(Nc2c3ccccc3nc3ccccc23)c1`
Solution: 5.9

Problem: Name the reported Log K value associated with the molecule `CC(=O)Nc1ccccc1Nc1c2ccccc2nc2ccccc12`
Solution: 5.46

Problem: Name the reported Log K value associated with the molecule `Clc1ccc(Nc2c3ccccc3nc3ccccc23)cc1`
Solution: 5.91

Problem: Name the reported Log K value associated with the molecule `O=[N+]([O-])c1ccccc1Nc1c2ccccc2nc2ccccc12`
Solution: 5.49

Problem: Name the reported Log K value associated with the molecule `CCCCCCNc1ccc(Nc2c3ccccc3nc3ccccc23)cc1`
Solution: 6.38

Problem: Name the reported Log K value associated with the molecule `NS(=O)(=O)c1ccccc1Nc1c2ccccc2nc2ccccc12`
Solution: 5.77

Problem: Name the reported Log K value associated with the molecule `c1cncc(Nc2c3ccccc3nc3ccccc23)c1`
Solution: 5.96

Problem: Name the reported Log K value associated with the molecule `CC(=O)Nc1cccc(Nc2c3ccccc3nc3ccccc23)c1`
Solution: 5.96
